Hey, just so you know, these numbers are from patent US20220340678A1.

The binders listed here are annotated with their koff.
tested.target: T1, IL-12 p40 C177F variant (human, UniProt P29460 23-328)
T1 sequence: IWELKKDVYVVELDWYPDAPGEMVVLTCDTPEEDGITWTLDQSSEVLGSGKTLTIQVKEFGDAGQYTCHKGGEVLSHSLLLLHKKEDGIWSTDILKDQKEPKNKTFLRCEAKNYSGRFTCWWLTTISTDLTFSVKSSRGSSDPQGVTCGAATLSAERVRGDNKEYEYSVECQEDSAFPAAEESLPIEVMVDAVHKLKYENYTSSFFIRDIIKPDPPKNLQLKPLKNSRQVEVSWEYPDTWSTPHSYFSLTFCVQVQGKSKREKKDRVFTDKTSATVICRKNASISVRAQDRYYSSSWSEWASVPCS
protocol.description: BLI (Octet), p35 C74 variant against p40 C177F
Please give a number only; it is taken to be in s⁻¹.

Consider the reported koff for these binders:
binder: IL-12 p35 C74Y variant (other) RNLPVATPDPGMFPCLHHSQNLLRAVSNMLQKARQTLEFYPCTSEEIDHEDITKDKTSTVEACLPLELTKNESYLNSRETSFITNGSCLASRKTSFMMALCLSSIYEDLKMYQVEFKTMNAKLLMDPKRQIFLDQNMLAVIDELMQALNFNSETVPQKSSLEEPDFYKTKIKLCILLHAFRIRAVTIDRVMSYLNAS
koff [s⁻¹]: 0.000298
//
binder: IL-12 p35 C74K variant (other) RNLPVATPDPGMFPCLHHSQNLLRAVSNMLQKARQTLEFYPCTSEEIDHEDITKDKTSTVEACLPLELTKNESKLNSRETSFITNGSCLASRKTSFMMALCLSSIYEDLKMYQVEFKTMNAKLLMDPKRQIFLDQNMLAVIDELMQALNFNSETVPQKSSLEEPDFYKTKIKLCILLHAFRIRAVTIDRVMSYLNAS
koff [s⁻¹]: 0.000295
//
binder: IL-12 p35 C74W variant (other) RNLPVATPDPGMFPCLHHSQNLLRAVSNMLQKARQTLEFYPCTSEEIDHEDITKDKTSTVEACLPLELTKNESWLNSRETSFITNGSCLASRKTSFMMALCLSSIYEDLKMYQVEFKTMNAKLLMDPKRQIFLDQNMLAVIDELMQALNFNSETVPQKSSLEEPDFYKTKIKLCILLHAFRIRAVTIDRVMSYLNAS
koff [s⁻¹]: 0.000291

We now examine a further binder.
Quick one: koff for IL-12 p35 C74D variant (other) RNLPVATPDPGMFPCLHHSQNLLRAVSNMLQKARQTLEFYPCTSEEIDHEDITKDKTSTVEACLPLELTKNESDLNSRETSFITNGSCLASRKTSFMMALCLSSIYEDLKMYQVEFKTMNAKLLMDPKRQIFLDQNMLAVIDELMQALNFNSETVPQKSSLEEPDFYKTKIKLCILLHAFRIRAVTIDRVMSYLNAS ?
0.000719
